Listed here are compounds together with their documented inhibition at 0.01 µM.
study-target: acyl-CoA:cholesterol O-acyltransferase (ACAT) (Oryctolagus cuniculus, UniProt G1SFD9)
Construct: The intestinal mucosa of a white rabbit was homogenized and microsomal fraction was obtained by stepwise centrifugation; from tissue; host or cells: intestinal mucosa of white rabbit, microsomal fraction
Sequence (G1SFD9 1-524): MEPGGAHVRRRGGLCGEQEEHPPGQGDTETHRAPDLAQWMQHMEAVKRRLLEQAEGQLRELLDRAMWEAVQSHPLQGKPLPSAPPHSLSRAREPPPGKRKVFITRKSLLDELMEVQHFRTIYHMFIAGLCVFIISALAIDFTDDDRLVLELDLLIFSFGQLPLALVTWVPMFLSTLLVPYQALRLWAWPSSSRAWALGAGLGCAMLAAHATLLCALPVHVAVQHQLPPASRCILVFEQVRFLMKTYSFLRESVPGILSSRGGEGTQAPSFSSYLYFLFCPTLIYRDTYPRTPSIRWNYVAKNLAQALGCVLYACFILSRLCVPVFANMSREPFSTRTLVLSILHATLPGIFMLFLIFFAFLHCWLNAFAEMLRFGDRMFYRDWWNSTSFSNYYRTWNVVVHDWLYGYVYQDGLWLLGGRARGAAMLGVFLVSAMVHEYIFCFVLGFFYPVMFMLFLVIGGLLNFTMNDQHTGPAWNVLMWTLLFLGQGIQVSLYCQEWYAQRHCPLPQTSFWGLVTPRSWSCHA
assay-remarks: Inhibitory activity on acyl-CoA:cholesterol O-acyltransferase (ACAT), intestinal mucosa microsomal fraction, [1-14C]oleyl-CoA incorporation into cholesterol esters
Type: biochemical, white rabbit
condition-label: 0.01 μM; read-out: Inhibition rate %
Numbers only here, please. The scale is %.

Here's what some known entries look like.
{"columns": ["compound", "endpoint", "unit-of-measure", "readout-number"],
 "data": [
  ["Cc1cc2sc(NC(=O)Nc3c(C)cccc3N(C)C)c(-c3ccccc3Cl)c2cc1C [Compound 83]", "inhibition at 0.01 µM", "%", 81.3],
  ["CC(C)c1cccc(C(C)C)c1NC(=O)Nc1sc2ccc([N+](=O)[O-])cc2c1-c1ccc(Cl)cc1Cl [Compound 100]", "inhibition at 0.01 µM", "%", 18.4],
  ["Cc1cc2sc(NC(=O)Nc3ccc(F)cc3F)c(-c3ccccc3Cl)c2cc1C [Compound 84]", "inhibition at 0.01 µM", "%", 78.6],
  ["Cc1cccc(N(C)C)c1NC(=O)Nc1sc2cc3c(cc2c1-c1ccccc1Cl)CCC3 [Compound 91]", "inhibition at 0.01 µM", "%", 65],
  ["Cc1cccc(N(C)C)c1NC(=O)Nc1oc2ccc(Cl)cc2c1-c1ccccc1Cl [Compound 19]", "inhibition at 0.01 µM", "%", 71.3],
  ["CCc1cccc(CC)c1NC(=O)Nc1sc2ccc(Cl)cc2c1-c1ccccc1Cl [Compound 65]", "inhibition at 0.01 µM", "%", 56.5]
]}

Report measured inhibition at 0.01 µM on acyl-CoA:cholesterol O-acyltransferase (ACAT) (Oryctolagus cuniculus, UniProt G1SFD9); entry: Cc1cc(C)c2oc(NC(=O)Nc3c(C(C)C)cccc3C(C)C)c(-c3ccccc3Cl)c2c1 [Compound 43]
52.1

Please report the measured inhibition at 0.01 µM for Cc1ccccc1-c1c(NC(=O)Nc2c(C(C)C)cccc2C(C)C)oc2ccc(Cl)cc12 [Compound 61] tested on acyl-CoA:cholesterol O-acyltransferase (ACAT) (Oryctolagus cuniculus, UniProt G1SFD9).
65.6

Lab note: record inhibition at 0.01 µM of CCc1cccc(CC)c1NC(=O)Nc1sc2cc3c(cc2c1-c1ccccc1Cl)CCCC3 [Compound 96] tested on acyl-CoA:cholesterol O-acyltransferase (ACAT) (Oryctolagus cuniculus, UniProt G1SFD9).
80.7
